# key: entry, value: melting point
quantity.name: melting point

[
  {
    "molecule": "Cc1ccc(-c2[nH][nH]c(=O)c2-c2nc3ccccc3s2)cc1 [Compound 16c]",
    "quantity.name": "melting point",
    "reported.result": "239 to 241 °C"
  },
  {
    "molecule": "O=c1[nH]c(-c2ccc(Br)cc2)ccc1-c1nc2ccccc2s1 [Compound 12b]",
    "quantity.name": "melting point",
    "reported.result": "345 to 346 °C"
  },
  {
    "molecule": "Cc1ccc(/C=C(/C(=O)NNS(=O)(=O)c2ccc(C)cc2)c2nc3ccccc3s2)cc1 [Compound 14c]",
    "quantity.name": "melting point",
    "reported.result": "195 to 196.5 °C"
  },
  {
    "molecule": "Cc1ccc(S(=O)(=O)NNC(=O)/C(=C/c2ccc(F)cc2)c2nc3ccccc3s2)cc1 [Compound 14a]",
    "quantity.name": "melting point",
    "reported.result": "201 to 202 °C"
  },
  {
    "molecule": "O=c1[nH][nH]c(-c2ccc(Cl)cc2)c1-c1nc2ccccc2s1 [Compound 16b]",
    "quantity.name": "melting point",
    "reported.result": "236 to 237.5 °C"
  },
  {
    "molecule": "Cc1ccc(S(=O)(=O)NNC(=O)/C(=N/Nc2ccc(Cl)cc2)c2nc3ccccc3s2)cc1 [Compound 19d]",
    "quantity.name": "melting point",
    "reported.result": "280 to 281 °C"
  }
]
